The origin of these recorded values is ChEMBL document CHEMBL4334424.

system: MIA PaCa-2; assay: Cytotoxicity against human MIAPaCa2 cells assessed as reduction in cell viability incubated for 72 hrs by alamar blue assay; type: functional, cell-based; conditions: MIA PaCa-2, 72 h
Catalogue of compounds with associated IC50
ENDPOINT_NAME: IC50 (µM)

COMPOUND	VALUE_RELATION_SIGN	OBSERVED
COCOc1cc(O)c(C(=O)/C=C/c2ccccc2)c(OCOC)c1	=	7.8
COCOc1cc(OC)cc(OC)c1C(=O)/C=C/c1ccccc1	=	5.6
CC(=O)c1c(O)cc(O)cc1O [2,4,6-TRIHYDROXYACETOPHENONE]	>	20
COc1cc(O)c(Cc2ccccc2O)c(O)c1C(=O)/C=C/c1ccccc1	=	5.1
COc1cc(OC)c(C(C)=O)c(OC)c1	=	14.3
COCOc1cc(OC)c(C(=O)/C=C/c2ccccc2)c(OCOC)c1	=	2.2
C=CCOc1ccccc1Cc1c(OC)cc(OC)c(C(=O)/C=C/c2ccccc2)c1OC	=	9.4
COc1cc(O)c(Cc2ccccc2O)c(O)c1C(=O)CCc1ccccc1	=	2
COc1cc(OC)c(C(=O)CCc2ccccc2)c(OC)c1Cc1ccccc1O	>	20
COCOc1cc(OCOC)c(C(C)=O)c(OCOC)c1	=	6.1
COc1cc(O)c(C(C)=O)c(OC)c1	>	20
COc1cc(OC)c(C(=O)/C=C/c2ccccc2)c(O)c1Cc1ccccc1O	>	20
COc1cc(O)c(C(=O)/C=C/c2ccccc2)c(OC)c1	=	18.2
COc1cc(OC)c(C(=O)/C=C/c2ccccc2)c(OC)c1	>	20
COCOc1cc(OC)cc(OC)c1C(C)=O	>	20
COc1cc(OC)c(C(=O)/C=C/c2ccccc2)c(OC)c1Cc1ccccc1O	=	4.1
COCOc1cc(O)c(C(C)=O)c(OCOC)c1	>	20
COCOc1cc(OCOC)c(C(=O)/C=C/c2ccccc2)c(OCOC)c1	=	11.8
